Target: 5-hydroxytryptamine receptor 2B (Homo sapiens, UniProt P41595)
Sequence (P41595 whole entry): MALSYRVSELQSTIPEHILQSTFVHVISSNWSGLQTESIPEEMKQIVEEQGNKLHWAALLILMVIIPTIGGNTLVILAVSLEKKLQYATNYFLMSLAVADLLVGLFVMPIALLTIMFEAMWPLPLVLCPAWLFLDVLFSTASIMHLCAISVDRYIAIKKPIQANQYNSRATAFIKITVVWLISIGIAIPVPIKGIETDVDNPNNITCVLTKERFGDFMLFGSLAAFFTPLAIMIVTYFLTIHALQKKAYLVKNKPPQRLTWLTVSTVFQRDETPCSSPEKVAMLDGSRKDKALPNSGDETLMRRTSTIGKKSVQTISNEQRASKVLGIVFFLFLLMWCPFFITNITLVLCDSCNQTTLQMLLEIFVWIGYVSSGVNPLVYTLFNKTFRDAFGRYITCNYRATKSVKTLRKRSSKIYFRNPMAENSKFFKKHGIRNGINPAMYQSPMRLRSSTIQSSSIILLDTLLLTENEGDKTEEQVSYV
quantity measured: Ki (nM)
Report the value in nM with no unit label.

Asked: // returns reported Ki for input c1ccc2c(N3CCNCC3)cccc2c1
Given back: 0.89
